- target system: T1, CD3ε homodimer protein (human, UniProt P07766 23-126, limits assumed, sulfo-tag or biotin label in some ECL assays)
- T1 construct: also called human CD3ε homodimer protein; CD3 (CD3ε)
- T1 sequence (P07766 23-126 limits assumed): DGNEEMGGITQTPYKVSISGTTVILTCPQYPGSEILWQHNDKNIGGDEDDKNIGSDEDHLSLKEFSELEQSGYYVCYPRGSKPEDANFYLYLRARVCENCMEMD
- measurement description: SPR, CD3ε homodimer on chip;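 note: biacore SPR with antibody variants flowed as analyte over amine-coupled CD3ε homodimer on a CM chip, bound amount of each single-residue H chain variant over that of parent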
Lab note: class by ratio of amounts bound vs CE115HA000, see one = under 0.5, two = from 0.5 up to 0.9, three = 0.9 and over

Examples from the recorded data:
{"columns": ["binder", "group label"],
 "data": [
  ["CE115HA000 A32Y (antibody, name in Kabat numbering, V domains shown) VH: QVQLVESGGGVVQPGRSLRLSCAASGFTFSNYWMHWVRQAPGKGLEWVAQIKAKSNNYATYYAESVKGRFTISRDDSKNSLYLQMNSLKTEDTAVYYCRYVHYGAYYGVDAWGQGTTVTVSS VL: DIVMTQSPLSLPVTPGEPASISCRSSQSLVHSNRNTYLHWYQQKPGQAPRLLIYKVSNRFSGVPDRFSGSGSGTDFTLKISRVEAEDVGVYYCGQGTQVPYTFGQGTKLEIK", "one"],
  ["CE115HA000 A99H (antibody, name in Kabat numbering, V domains shown) VH: QVQLVESGGGVVQPGRSLRLSCAASGFTFSNAWMHWVRQAPGKGLEWVAQIKAKSNNYATYYAESVKGRFTISRDDSKNSLYLQMNSLKTEDTAVYYCRYVHYGHYYGVDAWGQGTTVTVSS VL: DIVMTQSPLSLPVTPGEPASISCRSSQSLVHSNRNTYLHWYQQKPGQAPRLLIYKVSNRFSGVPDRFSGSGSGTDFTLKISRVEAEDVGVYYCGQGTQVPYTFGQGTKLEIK", "three"],
  ["CE115HA000 G65D (antibody, name in Kabat numbering, V domains shown) VH: QVQLVESGGGVVQPGRSLRLSCAASGFTFSNAWMHWVRQAPGKGLEWVAQIKAKSNNYATYYAESVKDRFTISRDDSKNSLYLQMNSLKTEDTAVYYCRYVHYGAYYGVDAWGQGTTVTVSS VL: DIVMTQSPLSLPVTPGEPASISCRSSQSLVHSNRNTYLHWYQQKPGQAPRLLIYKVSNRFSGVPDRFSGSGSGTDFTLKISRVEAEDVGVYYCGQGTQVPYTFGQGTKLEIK", "two"],
  ["CE115HA000 A52aD (antibody, name in Kabat numbering, V domains shown) VH: QVQLVESGGGVVQPGRSLRLSCAASGFTFSNAWMHWVRQAPGKGLEWVAQIKDKSNNYATYYAESVKGRFTISRDDSKNSLYLQMNSLKTEDTAVYYCRYVHYGAYYGVDAWGQGTTVTVSS VL: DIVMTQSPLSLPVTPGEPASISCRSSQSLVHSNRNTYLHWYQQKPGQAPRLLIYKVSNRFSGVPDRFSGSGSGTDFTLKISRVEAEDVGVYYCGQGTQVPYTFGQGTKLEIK", "three"]
]}

Form: Item = CE115HA000 N31S (antibody, name in Kabat numbering, V domains shown) VH: QVQLVESGGGVVQPGRSLRLSCAASGFTFSSAWMHWVRQAPGKGLEWVAQIKAKSNNYATYYAESVKGRFTISRDDSKNSLYLQMNSLKTEDTAVYYCRYVHYGAYYGVDAWGQGTTVTVSS VL: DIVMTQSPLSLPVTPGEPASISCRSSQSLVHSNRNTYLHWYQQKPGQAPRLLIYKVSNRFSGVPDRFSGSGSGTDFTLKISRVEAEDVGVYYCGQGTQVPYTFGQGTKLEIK ; Class = ? two

Another binder to look at: CE115HA000 Y55D (antibody, name in Kabat numbering, V domains shown) VH: QVQLVESGGGVVQPGRSLRLSCAASGFTFSNAWMHWVRQAPGKGLEWVAQIKAKSNNDATYYAESVKGRFTISRDDSKNSLYLQMNSLKTEDTAVYYCRYVHYGAYYGVDAWGQGTTVTVSS VL: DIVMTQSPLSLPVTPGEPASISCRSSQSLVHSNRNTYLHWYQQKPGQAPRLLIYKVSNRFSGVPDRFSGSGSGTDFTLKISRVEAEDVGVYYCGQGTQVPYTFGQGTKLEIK one

Another binder to look at: CE115HA000 H35D (antibody, name in Kabat numbering, V domains shown) VH: QVQLVESGGGVVQPGRSLRLSCAASGFTFSNAWMDWVRQAPGKGLEWVAQIKAKSNNYATYYAESVKGRFTISRDDSKNSLYLQMNSLKTEDTAVYYCRYVHYGAYYGVDAWGQGTTVTVSS VL: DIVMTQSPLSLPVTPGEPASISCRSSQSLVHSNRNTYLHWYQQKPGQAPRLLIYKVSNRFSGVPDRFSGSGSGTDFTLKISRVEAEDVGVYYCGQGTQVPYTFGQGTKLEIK one
